Ref: PubChem BioAssay (NCI)

# Test system: LOX IMVI melanoma
# procedure_text: NCI-60 one-dose screen, 48 h (100 = growth as untreated, 0 = no growth, -100 = all killed)
# condition_set: 10 µM unless noted
About 83,000 compounds went through this panel and 20% of them were active in at least one assay; those are over-represented in the sample as a whole.
This listing pairs compounds with measured growth.
Give the value in % but do not write % after it.

Guide cases for growth, answers given:
| compound | result_number |
| --- | --- |
| CC1(CF)NC(=O)NC1=O (stereo unspecified) | 100 |
| O=[N+]([O-])c1ccc(/C=C/C=C/c2ccc(S(=O)(=O)F)cc2)c(Cl)c1 | 102 |
| COC1=CC(=O)OC(CCc2ccc3c(c2)OCO3)C1 (stereo unspecified) | 98.5 |
| CC(=O)Nc1ccc(C=C2C(=O)NC(=O)NC2=O)cc1 | 96.8 |
| CCCCOC(=O)c1ccccc1C(=O)O.CCCCOC(=O)c1ccccc1C(=O)O.[Cu+2] | 89.4 |

Which growth is reported for this compound? C1CNC2CCCC2C1 (stereo unspecified)
101

----------
# Test system: HL-60(TB) leukemia
# procedure_text: NCI-60 one-dose screen, 48 h
# condition_set: 10 µM unless noted
The panel holds about 83,000 compounds, 20% with a hit somewhere; the sample as a whole holds those more often. Active and inactive are the calls of the source. Rule for the calls: active = growth percent below 10; inactive = the rest.
The reply should be one of these categories: Y = active, N = inactive

Worked examples follow.
| compound | class |
| --- | --- |
| NC(=O)c1cc(Cl)ccc1NC(=O)/C=C/c1ccccc1 | Y |
| CCc1ccc(Nc2cc(C)c3ccc(O)cc3n2)cc1 | N |
| O=C1/C(=C/c2ccc(-c3cccc(C(F)(F)F)c3)o2)SC(=S)N1CCc1ccc(O)cc1 | N |

Then there is this compound:
Please let me know the test result on file for `Cc1nn(-c2nc(-c3cc4ccccc4oc3=O)cs2)c(C)c1N=Nc1ccccc1` .
N

----------
# Test system: HL-60(TB) leukemia
# procedure_text: NCI-60 one-dose screen, 48 h
# condition_set: 10 µM unless noted
This is part of a sample that, as a whole, favours compounds with a hit. Of some 83,000 tested, about 20% had one in any assay. Calls of active or inactive are those of the source. How the source made its calls: active means growth percent below 10; inactive means the rest.
The reply should be one of these categories: y for active, n for inactive

Please let me know the test result on file for `COc1ccc(-c2cc(-c3cc(OC)c(OC)c(OC)c3)c(C#N)c(N3CCOCC3)n2)cc1O` .
y

Now give it for CCC12OC(COc3ccccc3)CN1CCN2c1ccccc1 (stereo not given) too.
n

Now give it for COC(=O)C1=C(C(=O)OC)C23C=C(C)C1C2=C(C)C1(CC1)[C@@](C)(O)C3=O (stereo not given in full) too.
n

Now give it for `CC(=O)c1c[nH]c2ccc(-c3ccnc(Nc4ccc(NC(=O)c5cccc(F)c5)c(CN5CCOCC5)c4)n3)cc12` too.
y

----------
# Tested on: 786-0 renal
# procedure_text: NCI-60 one-dose screen, 48 h
# condition_set: 10 µM unless noted
This is part of a sample that, as a whole, favours compounds with a hit. Of some 83,000 tested, about 20% had one in any assay. The source made the active and inactive calls. The calls were made as follows: active = growth percent below 10; inactive = the rest.
The reply should be one of these categories: yes = active, no = inactive

Worked examples follow.
| compound | class |
| --- | --- |
| Cn1cnnc1[S-].[Au+].c1ccc([PH+](c2ccccc2)c2ccccc2)cc1 | yes |
| O=C(CCc1ccco1)NC1CCN(CC2(c3ccc(Cl)cc3)CCC2)CC1 | no |
| O=C(CCF)c1ccc(O)cc1 | no |
| COc1ccccc1N1CCN(CCc2c[nH]c3cc4c(cc23)OCO4)CC1 | no |
| N#C[Se]CCCNS(=O)(=O)C1CC2C=CC1C2 (centres undefined) | yes |
| CC1(C)N=C(N)N=C(N)N1c1ccc(CNC(=O)Nc2ccc(S(=O)(=O)F)c(Cl)c2)c(Cl)c1 | no |

Please let me know the test result on file for `O=C(NCCNC(=O)c1ccc([As](O)O)cc1)c1ccc([As](O)O)cc1` .
no

Now give it for `CCN(CC)c1ccc(C=C2C(=O)NC(=S)NC2=O)cc1` too.
no

Now give it for `N#CC(C#N)=Cc1ccc2ccccc2c1` too.
no

Now give it for `S=P(N1CCCCCC1)(N1CC1)N1CC1` too.
no

----------
This listing pairs compounds with measured growth.
# Tested on: HL-60(TB) leukemia
# procedure_text: NCI-60 one-dose screen, 48 h (100 = growth as untreated, 0 = no growth, -100 = all killed)
# condition_set: 10 µM unless noted
# Description: Growth inhibition of the HL-60(TB) human tumor cell line is measured as a screen for anti-cancer activity. Cells are grown in 96 well plates and exposed to the test compound for 48 hours. Compounds are tested at a single concentration, which is 10^-5 M for most compounds. The reported endpoint is percent growth (GI% or GIPRCNT), where numbers from 0 - 100% represent growth inhibition, and numbers from -100% - 0 represent cell death. For example, a value of 40 represents 60% growth inhibition. […]
This is part of a sample that, as a whole, favours compounds with a hit. Of some 83,000 tested, about 20% had one in any assay.
Give the value in % but do not write % after it.

Which growth is reported for this compound? `O=C1/C(=C/c2ccc(C(F)(F)F)cc2)COc2ccc(O)cc21`
-36.1

Now give it for `Cc1ccc(S(=O)(=O)NC(=O)NCCSSCCNC(=O)NS(=O)(=O)c2ccc(C)cc2)cc1` too.
102

Now give it for `Cn1cc(-c2csc(-c3cn(C)c4ccc(Br)cc34)n2)c2cnccc21` too.
-58.4

Now give it for COc1ccc(C2CC(c3ccc(OC)cc3O)=NN2c2ccc(S(N)(=O)=O)cc2)cc1 (centres undefined) too.
-23.2

Now give it for `O=c1cc(CSc2nnc(-c3ccccc3)n2-c2ccc(F)cc2)c2ccc3ccccc3c2o1` too.
99.5

Now give it for `Cc1ccc(-c2[nH][nH]c(=O)c2-c2nc3ccccc3s2)cc1` too.
101

Now give it for `CC(=O)OC[C@H](O)[C@@]1(O)CC[C@H]2[C@@H]3CCC4=CC(=O)CC[C@]4(C)[C@H]3[C@@H](O)C[C@@]21C` too.
101

Now give it for `COc1ccc(/C=C/C(=O)c2ccc(Nc3ncnc4ccccc34)cc2)cc1OC` too.
75.6

Now give it for Nc1n[nH]c2ccc([C@@H]3Nc4cc5[nH]ncc5cc4[C@H]4C5CCC(C5)[C@@H]34)cc12 (some centres undefined) too.
-8.95

----------
# System: HT29 colon
# procedure_text: NCI-60 one-dose screen, 48 h
# condition_set: 10 µM unless noted
The panel holds about 83,000 compounds, 20% with a hit somewhere; the sample as a whole holds those more often. Activity calls are given as the source filed them. Rule for the calls: active = growth percent below 10; inactive = the rest.
The reply should be one of these categories: active, inactive

Worked examples follow.
| compound | class |
| --- | --- |
| OC1(c2ccccc2F)c2ccccc2C2=NCCN21 (stereo unspecified) | inactive |
| CCCCNCCc1ccccn1 | inactive |
| C#CC1(O)CCC2(C)C(CCC3C4CCC(=O)C4(C)CCC32)C1 (stereo unspecified) | inactive |

Please let me know the test result on file for COc1cc2c(cc1OC)CN(C)C(C)C2 (stereo unspecified) .
inactive

Now give it for `CCOC(=O)Nc1cc(Cl)c([N+](=O)[O-])c(NC(=O)OCC)n1` too.
inactive

Now give it for `C[C@]12CC[C@H]3[C@@H](C[C@@H]4N=C(c5ccc(O)cc5)S[C@@]45C[C@H](O)CC[C@]35C)[C@@H]1CC[C@@H]2O` too.
inactive

Now give it for COc1cc(C2=NN(c3ccccc3)C(c3sc(N(CCCl)CCCl)nc3Cl)C2)cc(OC)c1OC (stereo unspecified) too.
inactive

Now give it for `COc1ccc(/C=C(/C(=O)N2CCCC2)c2cc(OC)c(OC)c(OC)c2)cc1N` too.
active

Now give it for `[Cl][Hg][n]1cnc2c(Cl)c(Cl)c(Cl)cc21` too.
inactive

Now give it for `CCOc1cc(/C=N\Nc2nnc(C)n2N)c(C)cc1N(CCCl)CCCl` too.
inactive

Now give it for COC1=CC(=O)OC(CCc2ccc3c(c2)OCO3)C1 (stereo unspecified) too.
inactive

----------
# Test system: HL-60(TB) leukemia
# procedure_text: NCI-60 one-dose screen, 48 h
# condition_set: 10 µM unless noted
The panel holds about 83,000 compounds, 20% with a hit somewhere; the sample as a whole holds those more often. Activity calls are given as the source filed them. The calls were made as follows: active = growth percent below 10; inactive = the rest.
The reply should be one of these categories: Yes = active, No = inactive

| compound | class |
| --- | --- |
| CCSc1ccc([C@@H]2[C@@H](O)C(=O)N2c2cc(OC)c(OC)c(OC)c2)cc1 | Yes |
| O=C1OC(c2ccc(-c3ccccc3)cc2)=C/C1=C/c1c2ccccc2cc2ccccc12 | No |
| CCN(CC)CCNc1ccc(CO)c2sc3ccccc3c(=O)c12 | No |
| CN(C)c1ccc(O)c2c1CC1CC3C(N(C)C)C(=O)C(C(N)=O)=C(O)C3(O)C(=O)C1=C2O (stereo not given) | No |
| C[C@@H](C[C@H](CC1CC1)c1ccccc1)c1ccc2ccccc2c1 | No |
| COc1cc(C(=O)Nc2ccc(-c3nc4ccccc4[nH]3)cc2)cc(OC)c1OC | No |
| COc1nc(OC)nc(-c2cc(-c3cc(OC)c(OC)c(OC)c3)no2)n1 | No |
| Cc1cc(-c2cc(C)c(O)c(C)c2)cc(C)c1O | No |

Please let me know the test result on file for `CO[C@@H]1[C@H](N(C)C(=O)c2ccccc2)C[C@@H]2O[C@]1(C)n1c3ccccc3c3c4c(c5c6ccccc6n2c5c31)C(=O)NC4=O` .
No

Now give it for `O=c1oc2c(cnc3ccccc32)cc1-c1cccs1` too.
No

Now give it for `O=Nc1ccc(O)c2ccccc12` too.
Yes

Now give it for `O=C(O)CSCc1nnc2n(Cc3ccccc3)c(=O)c3c4c(sc3n12)CCCC4` too.
No

Now give it for `O=C(OCc1ccc2c(Cl)cc(Cl)c(O)c2n1)N1CCNCC1` too.
No
